These measurements were taken from patent US12600732B2.

Form field: clearance (one value per entry).
- experiment: PK data for BTK CTMs (in vivo plasma concentrations)
- setup.conditions: Mouse CD-1, 1 mg/kg IV
Note: unit mL/min/kg is implicit; provide only the numeric part.

compound="CN1CCN([C@H]2CCCN(c3cnc(C(N)=O)c(Nc4ccc(C5CCN(CC6CCN(c7ccc(C(=O)NC8CCC(=O)NC8=O)nc7)CC6)CC5)cc4)n3)C2)C1=O (some centres unmarked)" metric_name=clearance reading=11.6

Next:
Sample NC(=O)c1ncc(N2CCCCC2)nc1Nc1ccc(C2CCN(C[C@@H]3CCN(c4ccc5c(c4)C(=O)N(C4CCC(=O)NC4=O)C5=O)C3)CC2)cc1 (some centres unmarked) ; clearance observed: 12.6

* * *

Form field: IL-2 Secretion Anti-CD3/Anti-CD28 Stimulation (one value per entry).
- Test system: primary human T cells
- experiment: T cell activation assay, IL-2 secretion (ELISA)
- Assay type: cell-based
- setup.conditions: 1.4 nM; fold-change of response relative to baseline
Keep it simple and answer with nothing but the number.

molecule="CN1CCN([C@@H]2CCCN(c3cnc(C(N)=O)c(Nc4ccc(C5CCN(CC6CCN(c7ccc8c(c7)C(=O)N(C7CCC(=O)NC7=O)C8=O)CC6)CC5)cc4)n3)C2)C1=O (some centres unmarked)" reading=1.19
molecule="NC(=O)c1ncc(N2CCCCC2)nc1Nc1ccc(C2CCN(C[C@@H]3CCN(c4ccc5c(c4)C(=O)N(C4CCC(=O)NC4=O)C5=O)C3)CC2)cc1 (some centres unmarked)" reading=1.86
molecule="CN1CCN([C@@H]2CCCN(c3cnc(C(N)=O)c(Nc4ccc(N5CCN(C[C@@H]6[C@H]7CN(c8ccc9c(c8)C(=O)N(C8CCC(=O)NC8=O)C9=O)C[C@@H]67)CC5)cc4)n3)C2)C1=O (some centres unmarked)" reading=1.21
molecule="CN1CCN([C@@H]2CCCN(c3cnc(C(N)=O)c(Nc4ccc(C5CN(C6CCN(c7ccc8c(c7)C(=O)N(C7CCC(=O)NC7=O)C8=O)CC6)C5)cc4)n3)C2)C1=O (some centres unmarked)" reading=1.16

Next:
Sample C=CC(=O)N1CCC[C@@H](n2nc(-c3ccc(Oc4ccccc4)cc3)c3c(N)ncnc32)C1 [Ibrutinib, reference compound] ; IL-2 Secretion Anti-CD3/Anti-CD28 Stimulation observed: 0.84

* * *

Form field: clearance (one value per entry).
- experiment: PK data for BTK CTMs (in vivo plasma concentrations)
- setup.conditions: Dog Beagle, 1 mg/kg IV
# output: number + unit

compound="NC(=O)c1ncc(N2CCCCC2)nc1Nc1ccc(C2CCN(C[C@@H]3CCN(c4ccc5c(c4)C(=O)N(C4CCC(=O)NC4=O)C5=O)C3)CC2)cc1 (some centres unmarked)" reading="18.4 mL/min/kg"

Next:
Sample CN1CCN([C@H]2CCCN(c3cnc(C(N)=O)c(Nc4ccc(C5CCN(CC6CCN(c7ccc(C(=O)NC8CCC(=O)NC8=O)nc7)CC6)CC5)cc4)n3)C2)C1=O (some centres unmarked) ; clearance observed: 118 mL/min/kg

* * *

- experiment: PK data for BTK CTMs (in vivo plasma concentrations)
- setup.conditions: Rat Sprague-Dawley, 1 mg/kg IV
Please note: clearance exactly at 80 mL/min/kg is class 0. Only values below 80 mL/min/kg get class 1.

Consider the worked cases shown below.
compound="NC(=O)c1ncc(N2CCCCC2)nc1Nc1ccc(C2CCN(C[C@@H]3CCN(c4ccc5c(c4)C(=O)N(C4CCC(=O)NC4=O)C5=O)C3)CC2)cc1 (some centres unmarked)" cat="class 1"
compound="CN1CCN([C@H]2CCCN(c3cnc(C(N)=O)c(Nc4ccc(C5CCN(CC6CCN(c7ccc(C(=O)NC8CCC(=O)NC8=O)nc7)CC6)CC5)cc4)n3)C2)C1=O (some centres unmarked)" cat="class 0"
compound="CN1CCN([C@@H]2CCCN(c3cnc(C(N)=O)c(Nc4ccc(C5CCN(C6CN(c7ccc8c(c7)C(=O)N(C7CCC(=O)NC7=O)C8=O)C6)CC5)cc4)n3)C2)C1=O (some centres unmarked)" cat="class 1"
compound="CN1CCN([C@@H]2CCCN(c3cnc(C(N)=O)c(Nc4ccc(C5CN(C6CCN(c7ccc8c(c7)C(=O)N(C7CCC(=O)NC7=O)C8=O)CC6)C5)cc4)n3)C2)C1=O (some centres unmarked)" cat="class 1"

Next compound, please.
hey, is clearance for CN1CCN([C@@H]2CCCN(c3cnc(C(N)=O)c(Nc4ccc(C5CCN(CC6CCN(c7ccc(-c8nn(C9CCC(=O)NC9=O)c(=O)n8C)cc7)CC6)CC5)cc4)n3)C2)C1=O (some centres unmarked) lower than 80 mL/min/kg or not?
class 1
